- experiment: in vivo
- applied_conditions: both, cynomolgus monkey, iv, 15 mg/kg/day, AUC0-∞, cynomolgus, 15 mg/kg/day i.v., Day 7, mean
Where a SMILES comes first, the peptide text is derived from it. Bridges are numbered along the chain shown (N, C = ends).
reported_property: AUC(0-inf) (µg·h/mL)
Write down the numeric answer in µg·h/mL and omit the unit.

Look up AUC(0-inf): CC[C@H](C)[C@@H]1NC(=O)[C@@H]2CSSC[C@H](NC(=O)[C@H](CCCNC(=N)N)NC(=O)[C@@H]3CSSC[C@H](NC1=O)C(=O)N[C@@H]([C@@H](C)O)C(=O)N[C@@H](CCCNC(=N)N)C(=O)NCC(=O)N[C@@H](Cc1ccccc1)C(=O)N3)C(=O)N[C@@H](CC(C)C)C(=O)N[C@H]1CSSC[C@H](NC(=O)[C@H](C(C)C)NC(=O)CNC(=O)[C@H](CCCNC(=N)N)NC(=O)[C@H](CCCNC(=N)N)NC1=O)C(=O)N[C@@H](CCCNC(=N)N)C(=O)N2 [Peptide 1] (cyclo(GFCRCLCRRGVCRCICTR); disulfide 3-16, 5-14, 7-12)
188
